Source of measurements: PubChem BioAssay AID2419

A collection of molecules and their measured max CPE inhibition
ASSAY REMARKS: West Nile virus cytopathic effect inhibition, cell-based (AID 2419)
RECORDED CONDITIONS: West Nile virus-infected cells, stronger effect = higher value; at 200 µM unless noted
Entries with a potency or affinity are not part of this list. Calls of active or inactive are those of the source. The rule behind the calls is not given here.
MEASURED ENDPOINT: max CPE inhibition

[[record]]
molecule = "C=CCN(C(=O)c1ccccc1Cl)c1nc(-c2ccc(OC)cc2)cs1"
value_reported = "1.14% (inactive)"

[[record]]
molecule = "OC1c2cc(I)ccc2N=C2CCCN21 (stereo not given)"
value_reported = "0.77% [at 0.39 µM] (inactive)"

[[record]]
molecule = "OC1c2c(F)cccc2N=C2CCCCN21 (stereo not given)"
value_reported = "0.91% [at 0.39 µM] (inactive)"

[[record]]
molecule = "Cc1cc(OC(=O)c2c(F)cccc2F)n(Cc2ccccc2)n1"
value_reported = "1.92% (inactive)"

[[record]]
molecule = "O=C(CSc1nc2cccc(I)c2c(=O)n1-c1ccccc1)Nc1ccc2c(c1)CCC2"
value_reported = "3.08% (inactive)"

[[record]]
molecule = "OC1c2cc(Cl)cc(Cl)c2N=C2CCCN21 (stereo not given)"
value_reported = "1.94% [at 0.78 µM] (inactive)"

[[record]]
molecule = "OC1c2cc(Br)ccc2N=C2CCCCCN21 (stereo not given)"
value_reported = "6.41% [at 0.78 µM] (inactive)"

[[record]]
molecule = "OC1c2c(F)cccc2N=C2CCCN21 (stereo not given)"
value_reported = "0.91% [at 0.39 µM] (inactive)"

[[record]]
molecule = "Cc1cccc2c(=O)n(-c3ccccc3)c(SCC(=O)Nc3ccc4c(c3)CCC4)nc12"
value_reported = "2.82% [at 25 µM] (inactive)"

[[record]]
molecule = "Cc1ccc2nc(SCC(=O)Nc3ccc4c(c3)CCC4)n(-c3ccccc3)c(=O)c2c1"
value_reported = "6.42% [at 25 µM] (inactive)"

